Catalogue of binders with associated Binding (FOI)
MEASURED TARGET: T1, human CD3 expressed on cells (Jurkat cells; human primary T cells) (human, UniProt P07766 23-207; P04234 22-171; P09693 23-182)
T1 construct: whole, on cells
T1 sequence (P07766 23-207, chain 1 of 3): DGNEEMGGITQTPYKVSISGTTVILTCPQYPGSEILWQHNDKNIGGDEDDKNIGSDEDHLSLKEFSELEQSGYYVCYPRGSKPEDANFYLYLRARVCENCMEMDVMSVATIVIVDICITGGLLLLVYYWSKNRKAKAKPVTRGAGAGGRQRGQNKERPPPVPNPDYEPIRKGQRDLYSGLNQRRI
T1 sequence (P04234 22-171, chain 2 of 3): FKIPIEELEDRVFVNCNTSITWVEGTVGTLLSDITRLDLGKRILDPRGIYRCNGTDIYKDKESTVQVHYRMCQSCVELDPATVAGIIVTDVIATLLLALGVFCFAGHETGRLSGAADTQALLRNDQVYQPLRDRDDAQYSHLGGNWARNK
T1 sequence (P09693 23-182, chain 3 of 3): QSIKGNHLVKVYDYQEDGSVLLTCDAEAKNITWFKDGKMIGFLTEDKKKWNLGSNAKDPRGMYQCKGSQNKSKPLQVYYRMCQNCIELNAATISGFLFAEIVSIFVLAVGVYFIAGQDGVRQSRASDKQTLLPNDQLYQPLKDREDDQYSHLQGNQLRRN
TEST DETAILS: flow cytometry, 25 nM, human primary T cells
Protocol: Purified antibodies were confirmed to bind CD3 expressed on cells using the CytoFLEX S or LX flow cytometers (Beckman Coulter). Antibodies were diluted to 25 nM in FACS buffer (PBS+2% FBS) and were incubated with CD3-expressing cells for 30 minutes at 4° C. […] The median fluorescence intensity of the binding signal for each antibody was normalized to the isotype control to obtain a fold over isotype value. An antibody with a fold over isotype (FOI) of ≥10 was considered to be positive for binding.
Give the number; FOI is assumed, so skip it.

Past entries and their recorded results:
BINDER	RESULT VALUE
mAb 267 (antibody, V domains shown, VH/VL only) VH: QVQLQQSGPGLVKPSQTLSLTCAISGDSISSNYASWNWIRQSPSRGLEWLGRTYYRSKWYNDFAVSVKSRIIINPDTSRNQFSLHLNSVTPEDTAIYYCAREANGRGYFYYMDVWGKGTTVTVSS VL: EIVLTQSPDFQSVTPKEKVTITCRASQSIGSSLHWYQQKPDQSPKLLIKYASQSISGVPSRFSGRGSGTDFTLTINSLEAEDAAAYFCHQSSGSPHTFGGGTKVEIK	88.8
mAb 256 (antibody, V domains shown, VH/VL only) VH: QVQLQQSGPGLVKPSQTLSLTCAISGDSVSSNYASWNWIRQSPSRGLEWLGRTYYRSKWYNDFAVSVKSRVTINADTSKNQFSLHLSSVTPEDTAIYFCAREANGRGYFYYMDVWGKGTTVTVSS VL: EIVLTQSPDFQSVTPKEKVTITCRASQSIGSSLHWYQQKPVQSPKLLIKYASQSISGVPSRFSGSGSGTVFTLTINSLEAEDAAAYFCHQSSGSPHTFGGGTKVEIK	73

Q: Using the record for mAb 224 (antibody, V domains shown, VH/VL only) VH: QVQLVESGGGVVQPGRSLRLSCAASGFTFSGYGMHWVRQAPGKGLEWVAIIYYNGKKEYYADSVKGRFTISRDNSKNMLYLQMNGLRAEDTAIYYCTRGEGYNWFDPWGQGTLVTVSS VL: EIVMTQSPATLSVSPGERTTLSCRASQSVSNNLAWYQQKPGQAPRLLIYGASTRATGIPARFSGSGSGTEFTLTISSLQSEDFAVYYCQQYNNWPLTFGGGTKVEIK , report its Binding (FOI).
A: 212

// data source = patent US20230295310A1
